SYSTEM UNDER TEST: Aβ (1-40) (Homo sapiens)
Construct: 25 μM of Aβ (1-40)(Bachem Inc., Torrance, Calif., USA; Lot #WM365); purchased Bachem Inc., Torrance, Calif., USA
Sequence (P05067 672-711 limits assumed): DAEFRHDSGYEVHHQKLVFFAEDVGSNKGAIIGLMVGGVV
MEASUREMENT NOTES: Thioflavin T fluorometry assay of Aβ (1-40) amyloid fibril formation
Format: biochemical
TEST CONDITIONS: Example 1; 25 μM Aβ (1-40), 1.25 mM compound (1:50 M ratio), 1-week incubation
ENDPOINT NAME: effect on Aβ (1-40) amyloid fibril formation (in words)

COMPOUND	SYSTEM UNDER TEST	REPORTED MEASUREMENT
O=S(=O)(O)OC[C@H]1O[C@@](COS(=O)(=O)O)(O[C@H]2O[C@H](COS(=O)(=O)O)[C@@H](OS(=O)(=O)O)[C@H](OS(=O)(=O)O)[C@H]2OS(=O)(=O)O)[C@@H](OS(=O)(=O)O)[C@@H]1OS(=O)(=O)O [sucrose octasulfate, reference compound]	Aβ (1-40) (Homo sapiens)	ineffective inhibitors
CO[C@H]1O[C@H](COS(=O)(=O)O)[C@@H](OS(=O)(=O)O)[C@H](OS(=O)(=O)O)[C@@H]1OS(=O)(=O)O [reference compound]	Aβ (1-40) (Homo sapiens)	ineffective inhibitors
CO[C@H]1O[C@H](COS(=O)(=O)O)[C@@H](OS(=O)(=O)O)[C@H](OS(=O)(=O)O)[C@H]1OS(=O)(=O)O [reference compound]	Aβ (1-40) (Homo sapiens)	ineffective inhibitors
